- TARGET OR SYSTEM: Atg8 used for isothermal titration calorimetry (S. cerevisiae) (UniProt P38182)
- ASSAY TEXT: ITC; peptides titrated, Atg8; conditions not given
EXPERIMENTAL READOUT: Kd (nM)
Field format: number, assumed nM, no unit text.

Look at this binder and give its reported Kd. GDDNEKALTWEEL [peptide containing the canonical 412WEEL415 motif (Atg19, 403…415)]
2800

// provenance: paper PMC5009254
